- System: Gal3S(b1-3)GalNAc
- Assay info: glycan array binding signal (z-score within array); higher = stronger binding
- Test conditions: glycan notation: IUPAC condensed, linker removed
Only a selection was taken, and the strongest signals are over-represented in it overall.
Recorded glycan array binding signal (z-score) by entry
Lab note: record the figure alone, no unit after it.

CLEC-1 (Homo sapiens), Q9NZH3 (protein) MQAKYSSTRDMLDDDGDTTMSLHSQASATTRHPEPRRTEHRAPSSTWRPVALTLLTLCLVLLIGLAAWGLLFFQYYQLSNTGQDTISQMEERLGNTSQELQSLQVQNIKLAGSLQHVAEKLCRELYNKAGAHRCSPCTEQWKWHGDNCYQFYKDSKSWEDCKYFCLSENSTMLKINKQEDLEFAASQSYSEFFYSYWTGLLRPDSGKAWLWMDGTPFTSELFHIIIDVTSPRSRDCVAILNGMIFSKDCKELKRCVCERRAGMVKPESLHVPPETLGEGD : -0.341
Cohesin-hMARCO (Homo sapiens) (protein) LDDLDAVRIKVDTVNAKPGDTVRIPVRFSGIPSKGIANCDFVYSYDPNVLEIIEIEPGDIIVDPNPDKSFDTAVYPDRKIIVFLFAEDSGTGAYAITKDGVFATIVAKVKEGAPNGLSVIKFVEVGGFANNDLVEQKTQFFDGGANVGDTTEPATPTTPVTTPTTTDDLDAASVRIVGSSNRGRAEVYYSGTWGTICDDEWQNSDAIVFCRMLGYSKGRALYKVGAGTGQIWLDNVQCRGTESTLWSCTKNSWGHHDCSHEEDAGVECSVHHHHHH : 0.13

Kindly consider the entry below.
The reported value for AAL (Agrocybe aegerita), Q6WY08 (protein) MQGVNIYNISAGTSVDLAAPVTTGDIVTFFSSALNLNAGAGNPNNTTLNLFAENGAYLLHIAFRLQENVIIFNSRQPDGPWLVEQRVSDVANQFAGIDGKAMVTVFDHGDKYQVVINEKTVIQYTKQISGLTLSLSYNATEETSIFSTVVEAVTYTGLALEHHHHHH in terms of glycan array binding signal (z-score) is 9.4
